- System: SW684
- test_details: relative viability vs DMSO control (72 h) (fraction); higher = more viable cells
- measurement_setup: 0.04115 µM
reported_endpoint: relative viability

compound: Cc1ccc(NC(=O)c2ccc(CN3CCN(C)CC3)cc2)cc1Nc1nccc(-c2cccnc2)n1 [Imatinib]
reported_endpoint: relative viability
reported_value: 0.987
--
compound: COc1cc2nccc(Oc3ccc(NC(=O)C4(C(=O)Nc5ccc(F)cc5)CC4)cc3)c2cc1OC [Cabozantinib]
reported_endpoint: relative viability
reported_value: 1.12
--
compound: Cc1cn(-c2cc(NC(=O)c3ccc(C)c(Nc4nccc(-c5cccnc5)n4)c3)cc(C(F)(F)F)c2)cn1 [Nilotinib]
reported_endpoint: relative viability
reported_value: 1.12
--
compound: CN1CCN(CCOc2cc(OC3CCOCC3)c3c(Nc4c(Cl)ccc5c4OCO5)ncnc3c2)CC1 [Saracatinib]
reported_endpoint: relative viability
reported_value: 1.17
--
compound: COc1cc(OC)cc(N(CCNC(C)C)c2ccc3ncc(-c4cnn(C)c4)nc3c2)c1 [Erdafitinib]
reported_endpoint: relative viability
reported_value: 1.04
--
compound: C[C@@H]1COC(Nc2ccc3ncnc(Nc4ccc(OCc5nccs5)c(Cl)c4)c3c2)=N1 [Varlitinib]
reported_endpoint: relative viability
reported_value: 1.08
--
compound: NC(=O)c1cccc2cn(-c3ccc([C@@H]4CCCNC4)cc3)nc12 [Niraparib]
reported_endpoint: relative viability
reported_value: 1.13
--
compound: C=CC(=O)Nc1cccc(Nc2nc(Nc3ccc(N4CCN(C(C)=O)CC4)cc3OC)ncc2C(F)(F)F)c1 [Rociletinib]
reported_endpoint: relative viability
reported_value: 1.18
--
compound: CCCCCCCCCCCCCCCCCCOP(=O)([O-])OC1CC[N+](C)(C)CC1 [Perifosine]
reported_endpoint: relative viability
reported_value: 1.18
--
compound: Cc1nc(Nc2ncc(C(=O)Nc3c(C)cccc3Cl)s2)cc(N2CCN(CCO)CC2)n1 [Dasatinib]
reported_endpoint: relative viability
reported_value: 1
--
compound: C1=N/C2=N/c3ccc(OCCN4CCCC4)c(c3)COC/C=C/COCc3cccc(c3)C(=C1)N2 [Pacritinib]
reported_endpoint: relative viability
reported_value: 1.11
--
compound: CCN(c1cc(-c2ccc(CN3CCOCC3)cc2)cc(C(=O)NCc2c(C)cc(C)[nH]c2=O)c1C)C1CCOCC1 [Tazemetostat]
reported_endpoint: relative viability
reported_value: 1.12
--
compound: CCN(CCCOc1ccc2c(Nc3cc(CC(=O)Nc4cccc(F)c4)[nH]n3)ncnc2c1)CCOP(=O)(O)O [Barasertib]
reported_endpoint: relative viability
reported_value: 1.04
--
compound: NC(=O)c1cnc2[nH]ccc2c1N[C@@H]1[C@@H]2CC3C[C@H]1C[C@@](O)(C3)C2 [Peficitinib]
reported_endpoint: relative viability
reported_value: 1.12
--
compound: COc1cc2c(Oc3ccc4[nH]c(C)cc4c3F)ccnc2cc1OCC1(N)CC1 [Anlotinib]
reported_endpoint: relative viability
reported_value: 1.14
--
compound: N#CCC1(n2cc(-c3ncnc4[nH]ccc34)cn2)CN(C2CCN(C(=O)c3ccnc(C(F)(F)F)c3F)CC2)C1 [Itacitinib]
reported_endpoint: relative viability
reported_value: 1.07
